biological target: RAC-alpha serine/threonine-protein kinase (Homo sapiens); conditions: at 1 µM
Description: GSK_PKIS: AKT1 mean inhibition at 1 uM [Nanosyn]
quantityKind: inhibition (%)
Numbers only here, please. The scale is %.

Prompt: Fill: inhibition (RAC-alpha serine/threonine-protein kinase (Homo sapiens)) for this molecule `NS(=O)(=O)c1ccc(Nc2ncc(-c3ccccc3)o2)cc1`
Response: 0.93

Prompt: Specify the recorded inhibition for `CC(=O)NCc1cccc(C#Cc2cncnc2Nc2ccc(OCc3cccc(F)c3)c(Cl)c2)c1` , system: RAC-alpha serine/threonine-protein kinase (Homo sapiens).
Response: -1.16

Prompt: System RAC-alpha serine/threonine-protein kinase (Homo sapiens). Read-out inhibition. Item `COc1cc(Nc2nccc(Nc3ccc4c(C)n[nH]c4c3)n2)cc(OC)c1OC` . Report value.
Response: 1.09

Prompt: Param request: inhibition | system RAC-alpha serine/threonine-protein kinase (Homo sapiens) | item `CC(C)COC(=O)c1ccc2c(c1)/C(=C/Nc1ccc(S(N)(=O)=O)cc1)C(=O)N2`
Response: 2.22

Prompt: Recall the reported inhibition of `Nc1nc(-c2ccc(F)cc2)c(-c2ccc3ncccc3n2)s1` on RAC-alpha serine/threonine-protein kinase (Homo sapiens) and write it down.
Response: 1.34

###

biological target: Serine/threonine-protein kinase PAK 5 (Homo sapiens) (UniProt Q9P286); details: at 1 µM
Sequence (Q9P286 whole entry, looked up): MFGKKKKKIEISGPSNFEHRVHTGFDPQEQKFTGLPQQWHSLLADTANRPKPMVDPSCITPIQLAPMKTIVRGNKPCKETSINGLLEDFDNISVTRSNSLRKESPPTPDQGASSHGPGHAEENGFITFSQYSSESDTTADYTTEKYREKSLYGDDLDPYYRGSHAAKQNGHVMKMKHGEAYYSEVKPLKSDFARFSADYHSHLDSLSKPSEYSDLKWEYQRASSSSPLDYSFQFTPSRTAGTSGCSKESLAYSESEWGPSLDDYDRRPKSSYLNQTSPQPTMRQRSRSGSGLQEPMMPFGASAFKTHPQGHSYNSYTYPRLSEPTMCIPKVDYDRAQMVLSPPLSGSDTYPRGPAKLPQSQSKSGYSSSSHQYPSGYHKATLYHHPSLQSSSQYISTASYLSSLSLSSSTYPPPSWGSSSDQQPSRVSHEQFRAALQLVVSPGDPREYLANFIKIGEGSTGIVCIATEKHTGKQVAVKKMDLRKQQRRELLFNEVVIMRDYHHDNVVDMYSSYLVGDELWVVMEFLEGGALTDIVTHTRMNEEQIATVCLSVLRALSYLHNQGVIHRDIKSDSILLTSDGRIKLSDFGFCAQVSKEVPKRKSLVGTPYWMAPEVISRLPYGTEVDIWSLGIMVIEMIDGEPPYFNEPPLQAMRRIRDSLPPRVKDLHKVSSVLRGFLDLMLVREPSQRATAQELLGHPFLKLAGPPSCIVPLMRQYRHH
Description: GSK_PKIS: PAK5 mean inhibition at 1 uM [Nanosyn]
I'd appreciate it if you could supply inhibition values for the items below.
Just the number please, in %, no unit attached.

Prompt: Output measured inhibition for this item: `Cc1cccc2c1NC(=O)/C2=N\Nc1ccc(S(N)(=O)=O)cc1`
Response: 2.81

Prompt: Check the records and state inhibition for `CCOc1ccc2c(-c3ccnc(Nc4cccc(C(F)(F)F)c4)n3)cnn2n1`
Response: -0.74

Prompt: Provide measured inhibition value, entry: `COc1cc2ncn(-c3cc(OCc4ccccc4C(F)(F)F)c(C(=O)N(C)C)s3)c2cc1OC`
Response: 0.3

Prompt: Report measured inhibition; entry is `Nc1nc(-c2cccc(Cl)c2)c(-c2ccc3ncccc3n2)s1`
Response: -3.64

Prompt: Specify measured inhibition for `[O-][S+]1CCN(Cc2ccc(-c3ccc4ncnc(Nc5ccc(OCc6cccc(F)c6)c(Cl)c5)c4c3)o2)CC1` .
Response: 2.31

Prompt: Please indicate inhibition recorded for `Cc1ccc2c(-c3ccnc(Nc4ccccc4)n3)c(-c3ccc(F)cc3)nn2n1`
Response: 2.93

Prompt: Please give measured inhibition of the following entry: `CS(=O)(=O)CCNCc1ccc(-c2ccc3ncnc(Nc4ccc(OCc5ccccc5)c(C(F)(F)F)c4)c3c2)o1`
Response: 3.73

Prompt: Annotate the compound `CCn1c(-c2nonc2N)nc2c(C#CC(C)(C)O)nc(OC[C@H](N)c3ccccc3)cc21` with its measured inhibition.
Response: 70.9

Prompt: Assign inhibition to the following record: `CC(C)(CO)CNC(=O)c1ccc2c(c1)/C(=N/Nc1ccc(S(N)(=O)=O)cc1)C(=O)N2`
Response: 0.12

###

biological target: Serine/threonine-protein kinase BRSK2 (Homo sapiens) (UniProt Q8IWQ3); conditions: at 0.1 µM;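 note: values are mean inhibition of BRSK2 from the GSK PKIS screening dataset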
Sequence (Q8IWQ3 whole entry): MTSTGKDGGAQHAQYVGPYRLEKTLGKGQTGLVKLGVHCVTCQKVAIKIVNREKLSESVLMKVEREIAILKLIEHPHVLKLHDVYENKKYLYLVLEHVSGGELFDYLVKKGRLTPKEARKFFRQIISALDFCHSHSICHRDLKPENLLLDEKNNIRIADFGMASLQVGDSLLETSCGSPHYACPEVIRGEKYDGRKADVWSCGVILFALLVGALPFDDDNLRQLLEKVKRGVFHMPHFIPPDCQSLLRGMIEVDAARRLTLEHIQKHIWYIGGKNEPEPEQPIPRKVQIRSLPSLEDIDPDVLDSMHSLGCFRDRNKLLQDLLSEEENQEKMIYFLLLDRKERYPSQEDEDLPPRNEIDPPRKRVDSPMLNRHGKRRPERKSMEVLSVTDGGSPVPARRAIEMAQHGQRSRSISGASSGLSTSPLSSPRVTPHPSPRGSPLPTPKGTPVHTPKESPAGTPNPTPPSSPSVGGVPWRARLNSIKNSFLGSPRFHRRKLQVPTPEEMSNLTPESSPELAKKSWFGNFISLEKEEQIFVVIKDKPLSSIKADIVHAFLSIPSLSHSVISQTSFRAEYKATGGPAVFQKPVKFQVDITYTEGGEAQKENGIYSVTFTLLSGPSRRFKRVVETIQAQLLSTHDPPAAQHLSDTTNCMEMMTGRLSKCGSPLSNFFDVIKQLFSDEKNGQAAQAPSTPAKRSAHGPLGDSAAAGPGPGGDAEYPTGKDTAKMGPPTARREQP
Assign inhibition to each entry below.
Hey, just the number and the unit after it is fine.

Prompt: Using known records, supply inhibition for `CCCN(CCS(C)(=O)=O)Cc1ccc(-c2ccc3ncnc(Nc4ccc(OCc5cccc(F)c5)c(Cl)c4)c3c2)o1`
Response: 1.68%

Prompt: Read off the recorded inhibition for `CNC(=O)c1cccc(C#Cc2cncnc2Nc2ccc(OCc3cccc(F)c3)c(Cl)c2)c1`
Response: 1.59%

Prompt: Give me measured inhibition, please, for this molecule: `CN1CCC(n2cnc(-c3ccc(F)cc3)c2-c2ccnc(N)n2)CC1`
Response: 1.08%

Prompt: Tell me its inhibition given `COc1cccc(-c2c[nH]c3c(N/N=C/c4ccncc4)ncnc23)c1` as the entry.
Response: 4.82%

Prompt: # return recorded inhibition for input `CNC(=O)c1cncc(/C=C/c2ccccc2Cl)c1`
Response: 0.31%

Prompt: Fill in reported inhibition for this entry: `COC(=O)c1sc(-n2cnc3cc(OC)c(OC)cc32)cc1OCc1ccccc1C(F)(F)F`
Response: 2.43%

Prompt: Specify reported inhibition for the molecule shown: `Cc1cccc2c1NC(=O)/C2=N\Nc1ccc(S(N)(=O)=O)cc1`
Response: 0.94%

Prompt: Given the molecule `COc1cc2ncn(-c3cc(OCc4ccccc4C(F)(F)F)c(C(=O)N(C)C)s3)c2cc1OC` , write its reported inhibition.
Response: 0.49%

Prompt: Please report inhibition for the following molecule: `COc1ccc2[nH]c3c4[nH]c5ccc(OC)cc5c4c4c(c3c2c1)C(=O)NC4=O`
Response: 92.2%

Prompt: Read off the recorded inhibition for `CCNC(=O)O[C@H]1CN[C@H](C#Cc2cc3ncnc(Nc4ccc(OCc5cccc(F)c5)c(Cl)c4)c3s2)C1`
Response: 2.25%
